# MEASUREMENT TARGET: D(3) dopamine receptor (Homo sapiens, UniProt P35462)
# Sequence (P35462 whole entry): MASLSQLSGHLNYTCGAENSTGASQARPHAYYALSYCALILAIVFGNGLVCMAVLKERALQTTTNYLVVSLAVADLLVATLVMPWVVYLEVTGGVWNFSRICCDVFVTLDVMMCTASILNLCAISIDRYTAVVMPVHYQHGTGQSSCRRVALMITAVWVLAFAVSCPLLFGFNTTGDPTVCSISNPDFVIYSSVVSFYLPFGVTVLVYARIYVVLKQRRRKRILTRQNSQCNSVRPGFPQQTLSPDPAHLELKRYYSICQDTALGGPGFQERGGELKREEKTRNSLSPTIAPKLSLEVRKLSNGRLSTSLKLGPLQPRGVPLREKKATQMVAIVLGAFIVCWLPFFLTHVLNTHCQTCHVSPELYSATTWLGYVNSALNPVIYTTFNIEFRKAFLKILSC
# TEST DETAILS: Displacement of [3H]raclopride from human recombinant dopamine D3 receptor expressed in CHO-K1 cells at 1 uM incubated for 120 mins by liquid scintillation counting analysis
# Type: cell-based
QUANTITY NAME: inhibition (%)

CCCN1CCN(c2ccc3c(c2)N(S(=O)(=O)c2ccccc2)CC3)CC1 ... 99
O=S(=O)(c1ccccc1)N1CCc2ccc(N3CCN(C4CCC4)CC3)cc21 ... 78
CCN1CCC(c2ccc3c(c2)N(S(=O)(=O)c2ccccc2)CC3)CC1 ... 86
O=S(=O)(c1ccccc1)N1Cc2cccc(N3CCN(C4CCC4)CC3)c2C1 ... 72
O=S(=O)(c1ccccc1)N1CCc2ccc(N3CCNCC3)cc21 ... 58

----------
# MEASUREMENT TARGET: 5-hydroxytryptamine receptor 6 (Homo sapiens, UniProt P50406)
# Sequence (P50406 whole entry): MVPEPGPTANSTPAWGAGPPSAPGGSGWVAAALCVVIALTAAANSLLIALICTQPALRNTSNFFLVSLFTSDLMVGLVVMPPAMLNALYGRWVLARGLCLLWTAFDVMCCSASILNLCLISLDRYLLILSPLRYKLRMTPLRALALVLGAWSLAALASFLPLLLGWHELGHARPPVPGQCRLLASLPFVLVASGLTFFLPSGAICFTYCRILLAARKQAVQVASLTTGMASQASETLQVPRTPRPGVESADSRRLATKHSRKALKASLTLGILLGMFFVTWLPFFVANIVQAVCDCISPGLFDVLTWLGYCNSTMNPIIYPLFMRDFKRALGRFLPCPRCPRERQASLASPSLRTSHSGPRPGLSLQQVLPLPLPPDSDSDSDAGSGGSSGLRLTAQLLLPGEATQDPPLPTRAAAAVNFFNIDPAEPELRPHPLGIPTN
# TEST DETAILS: Displacement of [3H]LSD from human recombinant 5-HT6 receptor expressed in CHO-K1 cells incubated for 3 hrs by scintillation counting analysis
pKi: −log10 of the molar value.
QUANTITY NAME: pKi

The examples below pair each entry with its known result.
O=S(=O)(c1ccccc1)N1Cc2ccc(N3CCNCC3)cc2C1 ... 6.54
CCN1CCC(c2ccc3c(c2)N(S(=O)(=O)c2ccccc2)CC3)CC1 ... 7.64
CCN1CCN(c2ccc3c(c2)CCN3S(=O)(=O)c2ccccc2)CC1 ... 6.89
O=S(=O)(c1ccccc1)N1CCc2c(N3CCNCC3)cccc21 ... 6.93

I = CCCN1CCC(c2cccc3c2CN(S(=O)(=O)c2ccccc2)C3)CC1
II = O=S(=O)(c1ccccc1)N1Cc2cccc(C3CCN(C4CCC4)CC3)c2C1
Problem: Return label of the item with the larger pKi. Candidates: I , II . Label of pick, please.
Solution: I
(I: 7.68, II: 7.38)

----------
# MEASUREMENT TARGET: UniProt:P50406
# TEST DETAILS: Displacement of [3H]LSD from human recombinant 5-HT6 receptor expressed in CHO-K1 cells at 1 uM incubated for 3 hrs by scintillation counting analysis
# Format: cell-based
QUANTITY NAME: inhibition (%)

CN1CCC(c2ccc3c(c2)CCN3S(=O)(=O)c2ccccc2)CC1 ... 86
CN1CCN(c2ccc3c(c2)CCN3S(=O)(=O)c2ccccc2)CC1 ... 84
O=S(=O)(c1ccccc1)N1Cc2cccc(N3CCNCC3)c2C1 ... 98
CCCN1CCN(c2ccc3c(c2)N(S(=O)(=O)c2ccccc2)CC3)CC1 ... 82

----------
# MEASUREMENT TARGET: UniProtKB P50406
# TEST DETAILS: Displacement of [3H]LSD from human recombinant 5-HT6 receptor expressed in CHO-K1 cells incubated for 3 hrs by scintillation counting analysis
pKi: −log10 of the molar value.
QUANTITY NAME: pKi

O=S(=O)(c1ccccc1)N1CCc2ccc(N3CCN(C4CCC4)CC3)cc21 ... 6.73

1 = CCCN1CCN(c2ccc3c(c2)N(S(=O)(=O)c2ccccc2)CC3)CC1
2 = CCN1CCC(c2cccc3c2CN(S(=O)(=O)c2ccccc2)C3)CC1
3 = CCN1CCN(c2ccc3c(c2)N(S(=O)(=O)c2ccccc2)CC3)CC1
Problem: Order the records by pKi, with each subsequent value no larger than the one before. Quick reminder: the answer is the labels in the order asked.
Solution: 2, 3, 1

----------
# MEASUREMENT TARGET: 5-hydroxytryptamine receptor 6 (Homo sapiens, UniProt P50406)
# TEST DETAILS: Displacement of [3H]LSD from human recombinant 5-HT6 receptor expressed in CHO-K1 cells at 1 uM incubated for 3 hrs by scintillation counting analysis
# Format: cell-based
QUANTITY NAME: inhibition (%)

Please review the following examples before continuing.
O=S(=O)(c1ccccc1)N1Cc2cccc(C3CCN(C4CCC4)CC3)c2C1 ... 91
O=S(=O)(c1ccccc1)N1Cc2ccc(N3CCNCC3)cc2C1 ... 46
O=S(=O)(c1ccccc1)N1CCc2c(N3CCNCC3)cccc21 ... 97
O=S(=O)(c1ccccc1)N1CCc2cc(N3CCN(C4CCC4)CC3)ccc21 ... 28

a = CCCN1CCC(c2cccc3c2CN(S(=O)(=O)c2ccccc2)C3)CC1
b = CCCN1CCC(c2ccc3c(c2)CCN3S(=O)(=O)c2ccccc2)CC1
Problem: Between a and b , whose measured inhibition reads higher? In your reply, give the label of the chosen option.
Solution: a

----------
# MEASUREMENT TARGET: UniProtKB P35462
# TEST DETAILS: Displacement of [3H]raclopride from human recombinant dopamine D3 receptor expressed in CHO-K1 cells at 1 uM incubated for 120 mins by liquid scintillation counting analysis
# Type: cell-based
QUANTITY NAME: inhibition (%)

Before answering, review these 5 worked examples.
O=S(=O)(c1ccccc1)N1CCc2c(N3CCN(C4CCC4)CC3)cccc21 ... 60
CCCN1CCC(c2cccc3c2CCN3S(=O)(=O)c2ccccc2)CC1 ... 56
O=S(=O)(c1ccccc1)N1CCc2ccc(C3CCN(C4CCC4)CC3)cc21 ... 59
CCN1CCN(c2ccc3c(c2)CN(S(=O)(=O)c2ccccc2)C3)CC1 ... 61
O=S(=O)(c1ccccc1)N1CCc2cc(C3CCN(C4CCC4)CC3)ccc21 ... 48

I = O=S(=O)(c1ccccc1)N1Cc2cccc(C3CCN(C4CCC4)CC3)c2C1
II = CCCN1CCC(c2cccc3c2CN(S(=O)(=O)c2ccccc2)C3)CC1
III = CN1CCN(c2cccc3c2CN(S(=O)(=O)c2ccccc2)C3)CC1
IV = CN1CCC(c2cccc3c2CCN3S(=O)(=O)c2ccccc2)CC1
Problem: # sort list by recorded inhibition, greatest to least Reply with the item labels sorted in the order that was asked for.
Solution: III, II, IV, I
(III: 85%, II: 55%, IV: 13%, I: -5%)

----------
# MEASUREMENT TARGET: 5-hydroxytryptamine receptor 6 (Homo sapiens)
# TEST DETAILS: Displacement of [3H]LSD from human recombinant 5-HT6 receptor expressed in CHO-K1 cells incubated for 3 hrs by scintillation counting analysis
QUANTITY NAME: Ki (nM)

CCCN1CCN(c2cccc3c2CN(S(=O)(=O)c2ccccc2)C3)CC1 ... 4.6
CN1CCN(c2ccc3c(c2)CCN3S(=O)(=O)c2ccccc2)CC1 ... 440
CN1CCC(c2cccc3c2CN(S(=O)(=O)c2ccccc2)C3)CC1 ... 9
O=S(=O)(c1ccccc1)N1CCc2ccc(N3CCNCC3)cc21 ... 12

A = O=S(=O)(c1ccccc1)N1CCc2c(N3CCN(C4CCC4)CC3)cccc21
B = O=S(=O)(c1ccccc1)N1Cc2cccc(C3CCNCC3)c2C1
C = CN1CCC(c2ccc3c(c2)CCN3S(=O)(=O)c2ccccc2)CC1
D = O=S(=O)(c1ccccc1)N1Cc2cccc(N3CCN(C4CCC4)CC3)c2C1
Problem: Descending sort on Ki required. Answer by writing out the labels in the requested order.
Solution: A, C, D, B

----------
# MEASUREMENT TARGET: Histamine H3 receptor (Homo sapiens, UniProt Q9Y5N1)
# Sequence (Q9Y5N1 whole entry): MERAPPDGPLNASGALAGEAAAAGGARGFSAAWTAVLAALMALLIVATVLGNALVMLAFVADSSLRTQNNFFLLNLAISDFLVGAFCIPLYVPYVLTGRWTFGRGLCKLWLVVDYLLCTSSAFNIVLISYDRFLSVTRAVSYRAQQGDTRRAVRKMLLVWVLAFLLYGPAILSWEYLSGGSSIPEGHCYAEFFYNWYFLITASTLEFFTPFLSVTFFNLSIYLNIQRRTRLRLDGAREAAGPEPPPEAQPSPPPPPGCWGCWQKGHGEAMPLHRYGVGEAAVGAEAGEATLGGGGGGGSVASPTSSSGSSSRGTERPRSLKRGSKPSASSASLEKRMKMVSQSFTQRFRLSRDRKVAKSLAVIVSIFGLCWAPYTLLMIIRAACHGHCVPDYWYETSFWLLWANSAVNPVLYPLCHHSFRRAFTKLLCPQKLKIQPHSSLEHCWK
# TEST DETAILS: Displacement of N-alpha-[methyl-3H]methylhistamine dihydrochloride from human recombinant histamine H3 receptor expressed in CHO-K1 cells at 1 uM incubated for 30 mins by liquid scintillation counting analysis
# Type: cell-based
QUANTITY NAME: inhibition (%)

CN1CCC(c2ccc3c(c2)CN(S(=O)(=O)c2ccccc2)C3)CC1 ... 41
CCN1CCC(c2ccc3c(c2)CN(S(=O)(=O)c2ccccc2)C3)CC1 ... 48
O=S(=O)(c1ccccc1)N1CCc2c(C3CCN(C4CCC4)CC3)cccc21 ... 82
CCN1CCN(c2cccc3c2CCN3S(=O)(=O)c2ccccc2)CC1 ... 50
O=S(=O)(c1ccccc1)N1Cc2cccc(N3CCNCC3)c2C1 ... 11

P = CCN1CCN(c2ccc3c(c2)CCN3S(=O)(=O)c2ccccc2)CC1
Q = CCCN1CCN(c2ccc3c(c2)CCN3S(=O)(=O)c2ccccc2)CC1
Problem: Between item P and item Q , which reported inhibition is smaller? Write down the label attached to your selection.
Solution: Q
(Q: 39%, P: 65%)

I = CCCN1CCC(c2ccc3c(c2)N(S(=O)(=O)c2ccccc2)CC3)CC1
II = O=S(=O)(c1ccccc1)N1CCc2ccc(N3CCN(C4CCC4)CC3)cc21
Problem: inhibition comparison. Which is larger, I or II ? Write down the label attached to your selection.
Solution: II
(II: 36%, I: 14%)

----------
# MEASUREMENT TARGET: D(3) dopamine receptor (Homo sapiens, UniProt P35462)
# TEST DETAILS: Displacement of [3H]raclopride from human recombinant dopamine D3 receptor expressed in CHO-K1 cells at 1 uM incubated for 120 mins by liquid scintillation counting analysis
# Assay type: cell-based
QUANTITY NAME: inhibition (%)

Examples with their reported inhibition follow.
CCCN1CCC(c2ccc3c(c2)N(S(=O)(=O)c2ccccc2)CC3)CC1 ... 98
O=S(=O)(c1ccccc1)N1CCc2cc(N3CCNCC3)ccc21 ... 75

a = CN1CCN(c2ccc3c(c2)CCN3S(=O)(=O)c2ccccc2)CC1
b = CCN1CCC(c2cccc3c2CN(S(=O)(=O)c2ccccc2)C3)CC1
Problem: Could you tell me which of a and b has the lower inhibition reading? Output the label that corresponds to your choice.
Solution: b
(b: 53%, a: 85%)
